Field: pIC50. Provide a value for each of the molecules that follow.
Remember, pIC50 is on a log scale: it is -log10 of the molar concentration.

q: Under Cholinesterase (Homo sapiens): report pIC50 of CN1CCN(Cc2ccc(NC(=O)c3cc4cc(Br)ccc4oc3=O)cc2Cl)CC1 .
a: 5.72

q: Under Cholinesterase (Homo sapiens): report pIC50 of COc1ccc2cc(C(=O)Nc3ccc(CN4CCN(C)CC4)c(Cl)c3)c(=O)oc2c1 .
a: 5.78

q: Under Cholinesterase (Homo sapiens): report pIC50 of CN1CCN(Cc2ccc(NC(=O)c3cc4ccccc4oc3=O)cc2Cl)CC1 .
a: 5.70

q: Under Cholinesterase (Homo sapiens): report pIC50 of CN1CCN(Cc2ccc(NC(=O)c3cc4cc(Cl)ccc4oc3=O)cc2Cl)CC1 .
a: 5.75

q: Under Cholinesterase (Homo sapiens): report pIC50 of COc1cccc2cc(C(=O)Nc3ccc(CN4CCN(C)CC4)c(Cl)c3)c(=O)oc12 .
a: 5.75

q: Under Cholinesterase (Homo sapiens): report pIC50 of CCN1CCN(Cc2ccc(NC(=O)c3cc4ccccc4oc3=O)cc2Cl)CC1 .
a: 5.80

q: Under Cholinesterase (Homo sapiens): report pIC50 of CN1CCN(Cc2ccc(NC(=O)c3cc4cc([N+](=O)[O-])ccc4oc3=O)cc2Cl)CC1 .
a: 5.73

----------
Value Kind: log10(IC50) (log10 of the value in nM)
For clarity, the numbers are log10 values of IC50 expressed in nM.

q: Under Acetylcholinesterase (Homo sapiens): report log10(IC50) of CN1CCN(Cc2ccc(NC(=O)c3cc4cc(Cl)ccc4oc3=O)cc2Cl)CC1 .
a: 2.92

q: Under Acetylcholinesterase (Homo sapiens): report log10(IC50) of COc1cccc2cc(C(=O)Nc3ccc(CN4CCN(C)CC4)c(C(F)(F)F)c3)c(=O)oc12 .
a: 3.16

q: Under Acetylcholinesterase (Homo sapiens): report log10(IC50) of CCN1CCN(Cc2ccc(NC(=O)c3cc4cc(Cl)ccc4oc3=O)cc2Cl)CC1 .
a: 2.35

q: Under Acetylcholinesterase (Homo sapiens): report log10(IC50) of CN1CCN(Cc2ccc(NC(=O)c3cc4ccccc4oc3=O)cc2C(F)(F)F)CC1 .
a: 2.79

q: Under Acetylcholinesterase (Homo sapiens): report log10(IC50) of CCN1CCN(Cc2ccc(NC(=O)c3cc4cc(Br)ccc4oc3=O)cc2Cl)CC1 .
a: 2.08

q: Under Acetylcholinesterase (Homo sapiens): report log10(IC50) of COc1cccc2cc(C(=O)Nc3ccc(CN4CCN(C)CC4)c(Cl)c3)c(=O)oc12 .
a: 3.09

q: Under Acetylcholinesterase (Homo sapiens): report log10(IC50) of CCN1CCN(Cc2ccc(NC(=O)c3cc4cc([N+](=O)[O-])ccc4oc3=O)cc2Cl)CC1 .
a: 1.53

q: Under Acetylcholinesterase (Homo sapiens): report log10(IC50) of COc1ccc2cc(C(=O)Nc3ccc(CN4CCN(C)CC4)c(C(F)(F)F)c3)c(=O)oc2c1 .
a: 2.77

q: Under Acetylcholinesterase (Homo sapiens): report log10(IC50) of CN1CCN(Cc2ccc(NC(=O)c3cc4cc(Br)ccc4oc3=O)cc2Cl)CC1 .
a: 2.52

q: Under Acetylcholinesterase (Homo sapiens): report log10(IC50) of COc1ccc2cc(C(=O)Nc3ccc(CN4CCN(C)CC4)c(Cl)c3)c(=O)oc2c1 .
a: 3.19

q: Under Acetylcholinesterase (Homo sapiens): report log10(IC50) of CCN1CCN(Cc2ccc(NC(=O)c3cc4ccccc4oc3=O)cc2Cl)CC1 .
a: 3.11

q: Under Acetylcholinesterase (Homo sapiens): report log10(IC50) of CCN1CCN(Cc2ccc(NC(=O)c3cc4cccc(OC)c4oc3=O)cc2Cl)CC1 .
a: 2.29

q: Under Acetylcholinesterase (Homo sapiens): report log10(IC50) of CCN1CCN(Cc2ccc(NC(=O)c3cc4ccc(OC)cc4oc3=O)cc2Cl)CC1 .
a: 2.09

q: Under Acetylcholinesterase (Homo sapiens): report log10(IC50) of CN1CCN(Cc2ccc(NC(=O)c3cc4ccccc4oc3=O)cc2Cl)CC1 .
a: 3.11

q: Under Acetylcholinesterase (Homo sapiens): report log10(IC50) of CN1CCN(Cc2ccc(NC(=O)c3cc4cc([N+](=O)[O-])ccc4oc3=O)cc2Cl)CC1 .
a: 2.91
